These measurements were taken from patent US20240115557A1.

# Target: SpCas9 (Streptococcus pyogenes serotype M1, UniProt Q99ZW2)
# Sequence (Q99ZW2 whole entry): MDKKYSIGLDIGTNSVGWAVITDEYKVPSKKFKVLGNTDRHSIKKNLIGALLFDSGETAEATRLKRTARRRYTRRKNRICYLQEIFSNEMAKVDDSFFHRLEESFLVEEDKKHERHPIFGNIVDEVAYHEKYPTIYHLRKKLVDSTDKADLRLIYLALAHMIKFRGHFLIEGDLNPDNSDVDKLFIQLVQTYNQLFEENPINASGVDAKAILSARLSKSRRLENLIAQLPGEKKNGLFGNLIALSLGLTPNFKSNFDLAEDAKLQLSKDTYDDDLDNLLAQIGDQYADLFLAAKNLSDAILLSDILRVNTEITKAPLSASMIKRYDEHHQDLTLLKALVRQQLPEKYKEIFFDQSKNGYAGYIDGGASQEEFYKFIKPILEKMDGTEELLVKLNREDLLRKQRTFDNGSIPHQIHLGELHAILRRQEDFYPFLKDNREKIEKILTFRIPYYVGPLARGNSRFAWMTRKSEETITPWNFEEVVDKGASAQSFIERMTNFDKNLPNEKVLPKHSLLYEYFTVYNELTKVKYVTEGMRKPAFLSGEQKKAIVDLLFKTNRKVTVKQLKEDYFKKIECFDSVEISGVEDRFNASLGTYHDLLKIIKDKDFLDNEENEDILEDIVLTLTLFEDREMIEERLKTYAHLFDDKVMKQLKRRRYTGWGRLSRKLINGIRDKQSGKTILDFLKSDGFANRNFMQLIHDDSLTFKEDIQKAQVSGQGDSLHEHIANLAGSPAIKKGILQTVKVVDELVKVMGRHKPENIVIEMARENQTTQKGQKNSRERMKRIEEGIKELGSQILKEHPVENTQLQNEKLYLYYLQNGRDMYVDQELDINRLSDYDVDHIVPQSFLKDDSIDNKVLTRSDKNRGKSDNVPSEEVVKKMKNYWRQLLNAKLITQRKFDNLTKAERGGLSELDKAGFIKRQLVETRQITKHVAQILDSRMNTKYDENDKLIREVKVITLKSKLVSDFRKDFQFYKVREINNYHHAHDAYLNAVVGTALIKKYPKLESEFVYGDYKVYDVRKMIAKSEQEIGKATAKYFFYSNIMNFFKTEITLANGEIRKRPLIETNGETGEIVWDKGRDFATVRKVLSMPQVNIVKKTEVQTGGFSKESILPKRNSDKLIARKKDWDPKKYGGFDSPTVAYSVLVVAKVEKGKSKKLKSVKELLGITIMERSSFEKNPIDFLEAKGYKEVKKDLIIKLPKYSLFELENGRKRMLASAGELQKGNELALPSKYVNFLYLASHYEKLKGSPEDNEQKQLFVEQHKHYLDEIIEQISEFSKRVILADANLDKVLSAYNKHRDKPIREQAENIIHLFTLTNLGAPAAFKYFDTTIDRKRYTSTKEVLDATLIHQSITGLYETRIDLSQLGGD
# Assay Details: eGFP disruption assay, SpCas9, U2OS.eGFP.PEST cells
# Assay type: cell-based
# Test Conditions: replicate 1; normalized, lower control about 0, upper control about 1
// returns rule not met unless Normalized Z rep1 is strictly below 0.1, in which case rule met

- Compound: "Cc1nc2ccccc2c(C)c1CC(=O)N1CCN(c2ccc(O)cc2)CC1 [Compound T5461482]"
  Group: "rule not met"

Exam item: Normalized Z rep1 under 0.1? Item: NC1=C(c2nc3ccccc3s2)C(=O)CN1N=Cc1ccc(-c2ccc(S(=O)(=O)Nc3ncccn3)cc2)o1 [Compound T5371551]
Marked response: rule not met

Exam item: Normalized Z rep1 under 0.1? Item: O=C(CCS(=O)(=O)c1ccc(Cl)cc1)Nc1nc(-c2ccccn2)cs1 [Compound G786-1324]
Marked response: rule not met

Exam item: Normalized Z rep1 under 0.1? Item: O=C(NCC1CCCO1)c1ccc(Oc2ccnc(-c3ccc(F)cc3)n2)cc1 (centres unmarked) [Compound L662-0604]
Marked response: rule met

Exam item: Normalized Z rep1 under 0.1? Item: O=C(CSc1nccn1-c1cccc(F)c1)N1CCN(c2ccc(O)cc2)CC1 [Compound T5535170]
Marked response: rule not met

Exam item: Normalized Z rep1 under 0.1? Item: Cc1c(P(=S)(N2CCOCC2)N2CCOCC2)cc(C#N)n1C [Compound T0503-9777]
Marked response: rule met

Exam item: Normalized Z rep1 under 0.1? Item: CCOC(=O)C1=C(C)NN=C(Nc2cccc(C)c2C)S1 [Compound T0519-6400]
Marked response: rule not met

Exam item: Normalized Z rep1 under 0.1? Item: COc1ccc(Cc2nnc3sc(Cc4ccc(OC)c(OC)c4)nn23)cc1 [Compound D727-0165]
Marked response: rule not met

Exam item: Normalized Z rep1 under 0.1? Item: COc1ccc(OC)c(CNC(=O)c2ccc(Oc3ccnc(-c4cccc(F)c4)n3)cc2)c1 [Compound L662-0973]
Marked response: rule not met

Exam item: Normalized Z rep1 under 0.1? Item: COc1ccc(CNC(=O)c2ccc(Oc3ccnc(-c4cccc(F)c4)n3)cc2)c(OC)c1 [Compound L662-0987]
Marked response: rule not met

Exam item: Normalized Z rep1 under 0.1? Item: O=C(CCS(=O)(=O)c1ccccc1)Nc1nc(-c2ccncc2)cs1 [Compound G786-1264]
Marked response: rule not met

Exam item: Normalized Z rep1 under 0.1? Item: Cc1ccccc1OCc1nn2c(C(C)(C)C)nnc2s1 [Compound D727-0351]
Marked response: rule met

Exam item: Normalized Z rep1 under 0.1? Item: Cc1ccccc1C(=O)Nc1nc2ccc(S(N)(=O)=O)cc2s1 [Compound G786-1547]
Marked response: rule not met

Exam item: Normalized Z rep1 under 0.1? Item: CCN1C(=O)c2cccc3cccc1c23 [Compound T0503-6911]
Marked response: rule not met

---

# Target: SaCas9 (Staphylococcus aureus)
# Sequence (J7RUA5 1-1053): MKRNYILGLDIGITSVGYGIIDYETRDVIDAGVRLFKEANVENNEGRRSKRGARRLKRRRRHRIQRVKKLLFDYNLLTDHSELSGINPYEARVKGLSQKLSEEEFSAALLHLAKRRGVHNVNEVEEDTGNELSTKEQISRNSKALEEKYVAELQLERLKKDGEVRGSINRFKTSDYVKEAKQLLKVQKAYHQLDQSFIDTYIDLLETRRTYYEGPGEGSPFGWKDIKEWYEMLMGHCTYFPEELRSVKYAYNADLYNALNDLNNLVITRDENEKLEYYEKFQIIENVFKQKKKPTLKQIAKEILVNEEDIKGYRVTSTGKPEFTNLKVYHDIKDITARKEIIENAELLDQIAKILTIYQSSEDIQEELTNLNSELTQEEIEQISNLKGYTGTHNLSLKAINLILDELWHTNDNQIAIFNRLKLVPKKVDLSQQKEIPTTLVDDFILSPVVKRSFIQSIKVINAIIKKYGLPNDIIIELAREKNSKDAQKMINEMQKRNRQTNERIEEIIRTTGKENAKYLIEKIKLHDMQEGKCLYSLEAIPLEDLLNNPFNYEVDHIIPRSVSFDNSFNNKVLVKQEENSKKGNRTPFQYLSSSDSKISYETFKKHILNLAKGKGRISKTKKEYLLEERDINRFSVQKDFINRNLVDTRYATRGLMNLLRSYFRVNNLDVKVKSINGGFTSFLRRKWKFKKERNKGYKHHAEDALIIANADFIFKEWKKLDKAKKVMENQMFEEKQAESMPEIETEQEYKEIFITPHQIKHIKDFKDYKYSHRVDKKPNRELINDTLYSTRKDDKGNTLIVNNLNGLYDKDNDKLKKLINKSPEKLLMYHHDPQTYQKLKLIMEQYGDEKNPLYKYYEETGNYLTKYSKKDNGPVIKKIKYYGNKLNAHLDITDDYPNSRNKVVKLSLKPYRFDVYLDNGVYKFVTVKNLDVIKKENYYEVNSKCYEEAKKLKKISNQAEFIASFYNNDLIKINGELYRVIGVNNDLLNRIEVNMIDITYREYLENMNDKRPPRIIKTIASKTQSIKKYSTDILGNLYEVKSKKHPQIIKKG
# Assay Details: eGFP secondary assay, SaCas9
# Assay type: cell-based
# Test Conditions: replicate 2, % eGFP disruption
// returns n unless Normalized eGFP Disruption Rep 2 is strictly below 60, in which case y

Example results:
- Compound: "COc1ccc(N2C(=O)c3cc4ccccc4n3CC2(C)C(=O)NC2CCCCC2)c(OC)c1 (centres unmarked)"
  Group: "n"
- Compound: "Cc1nc(Nc2ccc(N3CCOCC3)cc2)cc(-c2ccccc2)n1"
  Group: "y"
- Compound: "NC(=O)c1sc(=S)n(Cc2ccccc2)c1N"
  Group: "y"

Exam item: Normalized eGFP Disruption Rep 2 under 60? Item: CCCN(CCC)C(=O)C1CCCN(c2ccc(-c3ccccc3)nn2)C1 (centres unmarked)
Marked response: y

Exam item: Normalized eGFP Disruption Rep 2 under 60? Item: CC(C)Cc1nnc2sc(-c3c[nH]c4ccccc34)nn12
Marked response: y

---

# Target: SpCas9 (Streptococcus pyogenes serotype M1, UniProt Q99ZW2)
# Assay Details: eGFP disruption assay, SpCas9, U2OS.eGFP.PEST cells
# Format: cell-based
# Test Conditions: replicate 1, raw readout; Cas9 = lower control, Ctrl = upper control
Listing of recorded SpCas9 eGFP disruption Rep1 by entry.
Enter the number alone.

Illustrative cases are given below, each with its answer.
- Molecule: "O=C(NC1CCCCC1)c1cccc(Oc2cc(-c3ccccc3)ncn2)c1 [Compound L663-0999]"
  Target: "SpCas9 (Streptococcus pyogenes serotype M1, UniProt Q99ZW2)"
  Observable: "SpCas9 eGFP disruption Rep1"
  Value Reported: 77.659
- Molecule: "Cc1ccccc1C(=O)Nc1nc2ccc(S(N)(=O)=O)cc2s1 [Compound G786-1547]"
  Target: "SpCas9 (Streptococcus pyogenes serotype M1, UniProt Q99ZW2)"
  Observable: "SpCas9 eGFP disruption Rep1"
  Value Reported: 82.802
- Molecule: "COc1ccc(Cc2nnc3sc(Cc4ccc(OC)c(OC)c4)nn23)cc1 [Compound D727-0165]"
  Target: "SpCas9 (Streptococcus pyogenes serotype M1, UniProt Q99ZW2)"
  Observable: "SpCas9 eGFP disruption Rep1"
  Value Reported: 70.62
- Molecule: "C=CC1=C(C(=O)O)N2C(=O)[C@@H](NC(=O)C(=NOCC(=O)O)c3csc(N)n3)[C@H]2SC1.O [SAM001246816]"
  Target: "SpCas9 (Streptococcus pyogenes serotype M1, UniProt Q99ZW2)"
  Observable: "SpCas9 eGFP disruption Rep1"
  Value Reported: 76.555
- Molecule: "COc1ccc(CNC(=O)c2ccc(Oc3ccnc(-c4cccc(F)c4)n3)cc2)c(OC)c1 [Compound L662-0987]"
  Target: "SpCas9 (Streptococcus pyogenes serotype M1, UniProt Q99ZW2)"
  Observable: "SpCas9 eGFP disruption Rep1"
  Value Reported: 79.157
- Molecule: "CCN1C(=O)c2cccc3cccc1c23 [Compound T0503-6911]"
  Target: "SpCas9 (Streptococcus pyogenes serotype M1, UniProt Q99ZW2)"
  Observable: "SpCas9 eGFP disruption Rep1"
  Value Reported: 67.522
- Molecule: "Cc1ccccc1OCc1nn2c(C(C)(C)C)nnc2s1 [Compound D727-0351]"
  Target: "SpCas9 (Streptococcus pyogenes serotype M1, UniProt Q99ZW2)"
  Observable: "SpCas9 eGFP disruption Rep1"
  Value Reported: 67.967

Exam item: Bench note: what SpCas9 eGFP disruption Rep1 did O=C(CCS(=O)(=O)c1ccccc1)Nc1nc(-c2ccncc2)cs1 [Compound G786-1264] show?
Marked response: 82.717

---

# Target: SpCas9 (Streptococcus pyogenes serotype M1, UniProt Q99ZW2)
# Assay Details: eGFP disruption assay, SpCas9, U2OS.eGFP.PEST cells
# Format: cell-based
# Test Conditions: replicate 2
Listing of recorded Z socre Rep2 by entry.
Enter the number alone.

- Compound: "Cn1nc(-c2ccccc2F)c2cc(C(=O)Oc3ccc4cnccc4c3)sc21 [Compound G784-0099]"
  Value Reported: 0.21
- Compound: "Nc1c(C(=O)NCC2CCCO2)sc(=S)n1-c1ccc(Cl)cc1 (centres unmarked) [Compound F128-0076]"
  Value Reported: "−1.11"
- Compound: "COc1ccc(-c2cc3c(C)nc(N)nc3n(C3CCC(OCCO)CC3)c2=O)cn1 (centres unmarked) [Compound S2743]"
  Value Reported: "−8.50"
- Compound: "Cc1cccc(C(=O)Nc2ccccc2Sc2cc(C)nc3ncnn23)c1 [Compound F518-0014]"
  Value Reported: "−5.07"
- Compound: "Cc1[nH]nc2ccc(-c3cncc(OCC(N)Cc4ccccc4)c3)cc12 (centres unmarked) [Compound S2670]"
  Value Reported: "−33.58"

Exam item: Bench note: what Z socre Rep2 did Cc1ccc(-c2nc(CN3CCCC(C(=O)Nc4cc(C)ccc4O)C3)no2)cc1 (centres unmarked) [Compound J065-2258] show?
Marked response: −1.43

Exam item: Bench note: what Z socre Rep2 did Brc1ccc(OCc2nn3c(-c4ccccn4)nnc3s2)cc1 [Compound D727-0522] show?
Marked response: 0.79

Exam item: Bench note: what Z socre Rep2 did Cc1occc1-c1nnc2sc(-c3c[nH]c4ccccc34)nn12 [Compound D727-0786] show?
Marked response: 1.91
